The origin of these recorded values is patent US20250099448A1.

// IC50 collected for MAGL protein (Homo sapiens)
Please respond with the number in nM and leave the unit unwritten.

Look over these answered cases.
INSERT INTO measurements (mol, endpoint_value) VALUES
  ('O=C(N1CC2(CC(c3nc(C4CC4)n[nH]3)C2)C1)N1CC2(CC(S(=O)(=O)c3cccc(OC(F)(F)F)c3)C2)C1', 5.57),
  ('O=C(N1CC2(CC(Cc3ccc(F)cc3C(F)(F)F)C2)C1)N1CC2(CC(c3nnc(C4(O)CC4)[nH]3)C2)C1', 0.01);

With those in mind, consider the next molecule.
### Prompt Field request: IC50 | item: O=C(N1CCC(c2nn(C[C@H](O)C(F)(F)F)c3ccc(Cl)cc23)CC1)N1CC2(CC(c3nnc(C4CC4)[nH]3)C2)C1
### Response 14.3

* * *

- test target: MAGL protein (Homo sapiens, UniProt Q99685)
- Sequence (Q99685 1-303): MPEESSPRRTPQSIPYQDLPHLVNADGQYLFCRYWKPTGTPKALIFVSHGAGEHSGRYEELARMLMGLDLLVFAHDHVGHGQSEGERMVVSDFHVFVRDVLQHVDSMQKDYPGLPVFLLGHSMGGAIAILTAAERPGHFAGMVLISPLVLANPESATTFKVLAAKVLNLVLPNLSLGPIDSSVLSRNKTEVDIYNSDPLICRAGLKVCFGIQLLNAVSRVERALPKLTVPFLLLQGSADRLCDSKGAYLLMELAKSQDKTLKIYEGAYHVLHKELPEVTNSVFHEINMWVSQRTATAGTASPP
experimental endpoint: pIC50
// pIC50 here means minus log10 of the molar concentration (mol/L)

Here is how some compounds turned out for pIC50.
INSERT INTO assay_data (compound, endpoint_value) VALUES
  ('O=C(N1CC2(CC(c3nnc(C4CC4)[nH]3)C2)C1)N1CC2(CN(Cc3ncc(C(F)(F)F)cn3)C2)C1 [compound 161]', 7.10),
  ('Cc1sc(-c2ccc(C3CN(C(=O)N4CC5(CC(c6nnc(C7CC7)[nH]6)C5)C4)C3)cc2)nc1C(C)O (stereo not shown) [Example 840]', 8.54),
  ('O=C(N1CC(NCc2ccc(OC(F)(F)F)cc2F)C1)N1CC2(CC(c3nnc(C4CC4)[nH]3)C2)C1 [compound 189]', 7.41),
  ('O=C(N1CC(C23CC(c4nnc(C5CC5)o4)(C2)C3)C1)N1CC2(CC(c3nnc(C4CC4)[nH]3)C2)C1 [compound 345]', 8.04),
  ('CS(=O)(=O)c1cc(OC(F)(F)F)ccc1OCC1CCN(C(=O)N2CC3(CC(c4nnc(C5CC5)[nH]4)C3)C2)CC1 [Example 917]', 6.62);

### Prompt # query: pIC50 of entry N=[S@@](=O)(c1cccc(CC2CC3(C2)CN(C(=O)N2CC4(CC(c5nnc(C6CC6)[nH]5)C4)C2)C3)c1)C(F)(F)F (single isomer, unassigned) [compound 127]
### Response 10.22

### Prompt So what's the measured pIC50 for this one? Cn1nccc1CN1CC2(C1)CN(C(=O)N1CC3(CC(c4nc(C5CC5)n[nH]4)C3)C1)C2 [compound 901]
### Response 6.87

* * *

Each entry below carries its measured log10 IC50, system: MAGL protein (Homo sapiens, UniProt Q99685).
Recorded IC50 (log10, nM)

Sample answers from the record:
INSERT INTO results (mol, endpoint_value) VALUES
  ('Cc1csc(C(=O)N2CCN(C(=O)N3CC4(CC(c5nnc(C6CC6)[nH]5)C4)C3)CC2)c1', 3.02),
  ('O=C(N1CC2(CC(Cc3cnc(C(F)(F)F)cn3)C2)C1)N1CC2(CC(c3nc(C(F)(F)F)n[nH]3)C2)C1', 1.35),
  ('COc1cc(C(N)=O)ccc1COC1CCN(C(=O)N2CC3(CC(c4nnc(C5CC5)[nH]4)C3)C2)CC1', 2.55),
  ('O=C(N1CC2(CC(c3nc(C4CC4)n[nH]3)C2)C1)N1CC2(CN(Cc3ccc(S(=O)(=O)C(F)(F)F)cc3F)C2)C1', -0.25);

### Prompt Quick check: log10 IC50 of O=C(N1CC(Oc2ccc(Cl)c(C3CC3)c2)C1)N1CC2(CC(c3nnc(C4(O)CC4)[nH]3)C2)C1 ?
### Response 1.17

### Prompt Tell me the measured log10 IC50 of O=C(O)c1ccccc1-c1ccc(C2CN(C(=O)N3CC4(CC(c5nnc(C6CC6)[nH]5)C4)C3)C2)cc1 , please.
### Response 0.03

### Prompt Which value of log10 IC50 has been reported for O=C(N1CC2(CC(c3cncc(F)c3)C2)C1)N1CC2(CC(c3nnc(C4CC4)[nH]3)C2)C1 in the records?
### Response 1.35

* * *

- test target: MAGL protein (Homo sapiens)
- experiment summary: 2-AG assay: MAGL inhibitory activity by hydrolysis of 2-arachidonoylglycerol to arachidonic acid, followed by mass spectrometry
- Assay type: biochemical
- condition: 8 μM 2-arachidonoylglycerol, 15 min preincubation, 30 min reaction at RT, RapidFire MS readout
compounds and their reported pIC50
Units for pIC50: none; it is -log10 of a concentration expressed in mol/L.

As a guide, the following entries are already answered.
INSERT INTO assay_data (compound, test_target, endpoint_value) VALUES
  ('O=C(N1CCC(CNS(=O)(=O)c2ccc(C(F)(F)F)cc2)CC1)N1CC2(CC(c3nnc(C4CC4)[nH]3)C2)C1 [compound 250]', 'MAGL protein (Homo sapiens)', 7.38),
  ('O=C(N1CC2(CC(c3nc(C4(O)CC4)n[nH]3)C2)C1)N1CC2(CC[C@H](Cc3cccc(S(=O)(=O)C(F)(F)F)c3)C2)C1 [compound 741]', 'MAGL protein (Homo sapiens)', 9.82);

### Prompt Using the record for O=C(N1CC(OCc2cccc(S(=O)(=O)C(F)(F)F)c2)C1)N1CC2(CC(c3nnc(C4CC4)[nH]3)C2)C1 [compound 321] , report its pIC50.
### Response 7.97

* * *

- test target: MAGL protein (Homo sapiens)
experimental endpoint: pIC50
Scale explanation: pIC50 corresponds to minus log10 of a concentration expressed in moles per litre.

INSERT INTO assay_data (compound, endpoint_value) VALUES
  ('CNc1nnc(-c2ccc(C3CN(C(=O)N4CC5(CC(c6nnc(C7CC7)[nH]6)C5)C4)C3)cc2)s1', 8.37),
  ('NC(=O)C1(c2ccc(C3CN(C(=O)N4CC5(CC(c6nnc(C7CC7)[nH]6)C5)C4)C3)cc2)CC1', 8.92),
  ('O=C(N1CC2(CC(Oc3ccc(C(F)(F)F)nc3)C2)C1)N1CC2(CC(c3nnc(C4(O)CC4)[nH]3)C2)C1', 8.22),
  ('O=C(N1CC(c2ccc(NCC3(C(F)(F)F)CC3)nc2)C1)N1CC2(CC(c3nnc(C4CC4)[nH]3)C2)C1', 9.85),
  ('Cn1ncc(CC2CC3(C2)CN(C(=O)N2CC4(CC(c5nc(C6CC(F)(F)C6)n[nH]5)C4)C2)C3)c1C(F)(F)F', 7.86),
  ('N=S(=O)(c1ccc(CC2CC3(C2)CN(C(=O)N2CC4(CC(c5nc(C6COC6)n[nH]5)C4)C2)C3)cc1)C(F)(F)F (centres unmarked)', 7.75),
  ('O=C(N1CC(CCc2ccc(C(F)(F)F)cc2F)C1)N1CC2(CC(c3nc(C4(O)CC4)n[nH]3)C2)C1', 8.61),
  ('O=C(N1CC(c2ccc(-n3nc(C(F)F)cc3C3CC3)cc2)C1)N1CC2(CC(c3nnc(C4CC4)[nH]3)C2)C1', 9.57);

### Prompt Using the record for O=C(N1CC2(CC(c3nc(C4CC(F)(F)C4)n[nH]3)C2)C1)N1CC2(CN(Cc3sncc3C(F)(F)F)C2)C1 , report its pIC50.
### Response 6.25

### Prompt Look at this compound and give its reported pIC50. O=C(N1CC2(CCC(Cc3ccc(C(F)(F)F)cn3)C2)C1)N1CC2(CC(c3nc(C4(O)CC4)n[nH]3)C2)C1 (centres unmarked)
### Response 8.60

### Prompt Name the reported pIC50 value associated with the compound N#Cc1cc(CC2CC3(C2)CN(C(=O)N2CC4(CC(c5nnc(C6CC6)[nH]5)C4)C2)C3)cnc1C(F)(F)F
### Response 9.41

### Prompt Please report the recorded pIC50 for O=C(N1CC(c2ccc(NC3(C(F)(F)F)CC3)cc2)C1)N1CC2(CC(c3nnc(C4CC4)[nH]3)C2)C1 .
### Response 9.64

### Prompt What value of pIC50 has been recorded for this entry: O=C(N1CC(CNS(=O)(=O)c2ccc(C(F)(F)F)cc2)C1)N1CC2(CC(c3nnc(C4CC4)[nH]3)C2)C1
### Response 6.50

### Prompt # lookup: pIC50 of CS(=O)(=O)c1ccc(CC2CC3(C2)CN(C(=O)N2CC4(CC(c5nc(C6CC(F)(F)C6)n[nH]5)C4)C2)C3)nc1
### Response 5.59
